Exercise: for every item that follows, state its recorded OD450.
Molecular target: T1, monkey CD22 protein (ACROBiosystems, catalog number SI2-R52Ha) (monkey, UniProt F6W485 20-688)
T1 construct: commercial protein; also called monkey CD22-ECD; monkey CD22-ECD-His
T1 sequence: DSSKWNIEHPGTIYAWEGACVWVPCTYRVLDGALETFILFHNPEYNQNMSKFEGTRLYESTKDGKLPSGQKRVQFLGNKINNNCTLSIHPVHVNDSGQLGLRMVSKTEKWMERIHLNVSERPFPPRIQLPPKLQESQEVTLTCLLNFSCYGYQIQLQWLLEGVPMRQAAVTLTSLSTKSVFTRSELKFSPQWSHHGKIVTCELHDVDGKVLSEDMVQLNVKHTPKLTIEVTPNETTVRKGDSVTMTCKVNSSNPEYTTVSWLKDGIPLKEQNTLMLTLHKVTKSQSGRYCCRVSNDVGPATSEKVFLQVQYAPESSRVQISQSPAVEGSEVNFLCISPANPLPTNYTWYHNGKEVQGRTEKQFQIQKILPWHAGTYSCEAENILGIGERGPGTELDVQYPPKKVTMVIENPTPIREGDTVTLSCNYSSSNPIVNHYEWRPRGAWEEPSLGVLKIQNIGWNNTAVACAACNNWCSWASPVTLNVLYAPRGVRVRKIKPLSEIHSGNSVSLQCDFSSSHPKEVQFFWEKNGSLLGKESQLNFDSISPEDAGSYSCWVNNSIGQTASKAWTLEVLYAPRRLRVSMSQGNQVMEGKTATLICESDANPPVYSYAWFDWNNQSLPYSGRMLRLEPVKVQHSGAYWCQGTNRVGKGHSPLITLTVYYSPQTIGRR
Experiment: ELISA, coated monkey CD22 protein, antibody 10 nM
Experimental: In order to detect the binding activity of CD22 human-murine chimeric antibodies to CD22 protein, the purified human CD22-ECD-His protein obtained in Example 2 was diluted with PBS to a final concentration of 2 μg/mL, and then added to 96-well ELISA plate at 100 μl/well. The plate was sealed with plastic film and incubated overnight at 4° C., the plate was washed 2 times with PBS the next day, and then a blocking solution [PBS+2% (w/w) BSA] was added for blocking at room temperature for 2 hours. […]
State the answer as a number, implicitly in OD450.

What value of OD450 has been reported for the following binder? F2.205.9 (antibody, human IgG1, lambda, V domains shown, human-murine chimeric IgG1 lambda; VL name legible) VH: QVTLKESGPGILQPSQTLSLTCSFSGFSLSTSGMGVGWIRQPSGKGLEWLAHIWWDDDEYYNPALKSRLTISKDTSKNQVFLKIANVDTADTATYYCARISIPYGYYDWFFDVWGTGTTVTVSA VL: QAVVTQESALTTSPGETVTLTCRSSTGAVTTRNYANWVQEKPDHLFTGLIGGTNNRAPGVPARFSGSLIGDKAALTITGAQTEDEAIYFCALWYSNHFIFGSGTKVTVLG
2.28

What value of OD450 has been reported for the following binder? F2.55.1 (antibody, human IgG1, lambda, V domains shown, human-murine chimeric IgG1 lambda; VL name legible) VH: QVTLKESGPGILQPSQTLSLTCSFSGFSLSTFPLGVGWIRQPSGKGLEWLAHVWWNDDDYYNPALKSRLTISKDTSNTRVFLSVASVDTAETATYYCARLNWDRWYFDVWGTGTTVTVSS VL: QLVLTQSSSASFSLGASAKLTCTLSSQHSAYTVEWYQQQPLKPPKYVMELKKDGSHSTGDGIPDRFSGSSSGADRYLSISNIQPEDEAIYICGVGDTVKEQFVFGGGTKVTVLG
2
